Parameter: IC50, inhibition of canine OSM pSTAT3 signaling, canine DH82 cells. Scope: all listed entries.
Molecular target: T1, canine OSMR on canine cells (canine, UniProt A0A8I3MI11 28-967)
T1 sequence: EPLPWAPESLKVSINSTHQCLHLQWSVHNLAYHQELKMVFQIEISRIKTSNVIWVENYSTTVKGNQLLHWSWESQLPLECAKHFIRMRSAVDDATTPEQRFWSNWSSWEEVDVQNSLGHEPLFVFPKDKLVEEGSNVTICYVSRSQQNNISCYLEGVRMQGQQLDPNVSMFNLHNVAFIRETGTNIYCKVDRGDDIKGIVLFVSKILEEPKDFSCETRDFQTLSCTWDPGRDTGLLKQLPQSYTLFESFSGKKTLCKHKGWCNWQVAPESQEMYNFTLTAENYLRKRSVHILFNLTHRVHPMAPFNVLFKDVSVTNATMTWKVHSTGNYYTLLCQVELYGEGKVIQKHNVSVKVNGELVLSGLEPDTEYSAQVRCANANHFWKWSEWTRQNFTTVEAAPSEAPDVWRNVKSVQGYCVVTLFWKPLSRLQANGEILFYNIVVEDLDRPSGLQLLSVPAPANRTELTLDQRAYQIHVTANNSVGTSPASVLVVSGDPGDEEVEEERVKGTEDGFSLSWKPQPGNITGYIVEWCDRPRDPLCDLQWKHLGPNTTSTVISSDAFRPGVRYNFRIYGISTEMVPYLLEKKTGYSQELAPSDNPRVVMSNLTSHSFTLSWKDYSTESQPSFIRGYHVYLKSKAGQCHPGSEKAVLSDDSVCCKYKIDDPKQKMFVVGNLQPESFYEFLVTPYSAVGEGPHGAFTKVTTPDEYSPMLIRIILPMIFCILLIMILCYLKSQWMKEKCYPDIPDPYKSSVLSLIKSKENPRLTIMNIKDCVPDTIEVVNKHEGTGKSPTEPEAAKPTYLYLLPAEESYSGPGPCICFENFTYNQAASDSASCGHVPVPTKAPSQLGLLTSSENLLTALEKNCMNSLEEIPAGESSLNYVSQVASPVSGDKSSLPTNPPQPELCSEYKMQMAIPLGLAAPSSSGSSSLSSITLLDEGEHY
Assay: cell-based or functional assay
Use µg/ml as the unit, but write only the number.

BINDER: Mu_19F07 (antibody, V domains shown, Mouse hybridoma IgG) VH: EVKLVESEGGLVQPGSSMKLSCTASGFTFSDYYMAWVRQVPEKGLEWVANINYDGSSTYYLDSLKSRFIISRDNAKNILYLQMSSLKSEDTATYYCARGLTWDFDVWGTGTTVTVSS VL: DIVMTQSHKFMSPSVGDRVSITCKASQDVDTAVAWYQQKPGQSPKLLIYLASTRHTGVPDRFTGSGSGTDFTLTISNVQSEDLADYFCQQYSRFPLTFGAGTKLELK
MEASURED_VALUE: 0.27

// next item, IC50, inhibition of canine OSM pSTAT3 signaling, canine DH82 cells requested
Qu. // query IC50, inhibition of canine OSM pSTAT3 signaling, canine DH82 cells value for entry mouse: canine 19F07 chimera (antibody, V domains shown, Mouse variable domains on canine IgG constant regions; also called 19F07 (Mouse:Canine); mouse:dog chimera 19F07) VH: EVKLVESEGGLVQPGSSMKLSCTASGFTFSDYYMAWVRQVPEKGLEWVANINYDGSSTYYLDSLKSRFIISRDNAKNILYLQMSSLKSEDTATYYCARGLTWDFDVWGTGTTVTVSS VL: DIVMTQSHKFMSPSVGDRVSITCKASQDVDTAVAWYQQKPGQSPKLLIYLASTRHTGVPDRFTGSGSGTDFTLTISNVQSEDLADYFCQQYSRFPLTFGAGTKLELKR
Ans. 0.26
